# Tested on: lipase
# Assay Overview: Lipase activity retention in detergent use solution (4000 ppm, 5 GPG water; p-nitrophenyl valerate, TRIS buffer pH 8.0)
# Assay type: biochemical
# Condition Notes: base formula, phosphonate at 0.1% elemental phosphorus, at 120º F. or at room temperature (as titled), time 5 min
Measured Metric: Relative Lipase Enzyme Activity (%)
The figure you give is taken to be in %; do not add the unit.

Would you please look over these solved cases?
CC(O)(P(=O)(O)O)P(=O)(O)O
79.12
O=C(O)CCC(CC(=O)O)(C(=O)O)P(=O)(O)O (stereo not shown)
87.75
NCP(=O)(O)O
79.03

Turning now to a further record.
Field: Relative Lipase Enzyme Activity (lipase). Entry: O=P(O)(O)CN(CP(=O)(O)O)CP(=O)(O)O
82.14
